target.or.system: SmGluCl-1 (Schistosoma mansoni, UniProt G4VR43)
Construct: full-length subunit co-expressed 1:1 with SmGluCl-2.1 (heteromer; no functional SmGluCl-1 homomer); with SmGluCl-2.1
Sequence (T2C5A6 entry or part of it): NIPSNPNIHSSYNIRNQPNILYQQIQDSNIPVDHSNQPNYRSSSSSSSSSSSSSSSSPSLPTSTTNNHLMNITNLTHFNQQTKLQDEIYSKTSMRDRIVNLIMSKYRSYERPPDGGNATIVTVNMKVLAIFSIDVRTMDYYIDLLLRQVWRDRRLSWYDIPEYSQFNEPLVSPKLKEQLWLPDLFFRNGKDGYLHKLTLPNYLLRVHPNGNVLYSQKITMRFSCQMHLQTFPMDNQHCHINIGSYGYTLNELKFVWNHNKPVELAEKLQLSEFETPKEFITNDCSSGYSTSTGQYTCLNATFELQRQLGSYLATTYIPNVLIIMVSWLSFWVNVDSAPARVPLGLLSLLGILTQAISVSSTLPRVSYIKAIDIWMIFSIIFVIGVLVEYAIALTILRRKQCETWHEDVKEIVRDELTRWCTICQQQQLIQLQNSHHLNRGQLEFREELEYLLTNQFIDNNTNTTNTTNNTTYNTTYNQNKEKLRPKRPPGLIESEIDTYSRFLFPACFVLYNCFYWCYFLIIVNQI
Sequence (G4VR43 entry or part of it): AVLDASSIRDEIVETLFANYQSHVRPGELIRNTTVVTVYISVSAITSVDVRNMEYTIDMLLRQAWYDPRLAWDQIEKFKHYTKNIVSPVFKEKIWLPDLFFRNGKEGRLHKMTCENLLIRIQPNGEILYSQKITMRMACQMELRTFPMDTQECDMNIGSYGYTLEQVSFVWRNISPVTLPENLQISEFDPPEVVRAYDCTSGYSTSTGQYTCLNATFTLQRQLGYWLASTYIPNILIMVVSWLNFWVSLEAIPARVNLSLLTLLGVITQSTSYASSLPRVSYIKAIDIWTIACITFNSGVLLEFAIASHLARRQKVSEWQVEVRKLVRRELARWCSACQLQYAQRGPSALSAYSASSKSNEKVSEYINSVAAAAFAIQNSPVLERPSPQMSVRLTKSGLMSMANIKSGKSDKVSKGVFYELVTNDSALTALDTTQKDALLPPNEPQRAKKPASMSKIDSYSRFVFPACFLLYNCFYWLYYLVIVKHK
assay.protocol: two-electrode voltage clamp in Xenopus oocytes
attribute.measured: EC50 (µM)
The reply should be a number in µM, with the unit left off.

Prompt: Given the entry N[C@@H](CCC(=O)O)C(=O)O [L-glutamate] , report its measured EC50.
Completion: 26.3

###

target.or.system: SmGluCl-3 (Schistosoma mansoni, UniProt T2C5W6)
Construct: full-length subunit, homomeric receptor (KC861384)
Sequence (T2C5W6 entry or part of it): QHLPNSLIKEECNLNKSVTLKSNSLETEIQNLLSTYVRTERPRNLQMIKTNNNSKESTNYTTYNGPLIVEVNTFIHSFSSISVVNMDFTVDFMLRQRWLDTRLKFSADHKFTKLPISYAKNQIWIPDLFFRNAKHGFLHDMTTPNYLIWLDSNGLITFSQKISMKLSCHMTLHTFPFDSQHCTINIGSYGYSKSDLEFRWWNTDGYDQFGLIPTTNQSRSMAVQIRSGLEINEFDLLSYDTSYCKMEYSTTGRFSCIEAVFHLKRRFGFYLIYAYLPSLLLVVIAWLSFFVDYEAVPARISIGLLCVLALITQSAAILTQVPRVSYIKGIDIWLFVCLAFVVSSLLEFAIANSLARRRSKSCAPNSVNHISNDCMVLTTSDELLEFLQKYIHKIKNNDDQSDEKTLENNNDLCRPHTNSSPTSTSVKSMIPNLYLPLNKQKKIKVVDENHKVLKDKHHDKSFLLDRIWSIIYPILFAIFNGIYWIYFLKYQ
assay.protocol: two-electrode voltage clamp in Xenopus oocytes
attribute.measured: pEC50
# log scale: pEC50 equals minus log10 of the concentration in mol/L

Prompt: Given the entry N[C@@H](CCC(=O)O)C(=O)O [L-glutamate] , report its measured pEC50.
Completion: 5.16

Cited source for all entries: paper PMC3757052
